All figures here come from patent US20150203812A1.

Below, each of the compounds is paired with its reported inhibition at 200 µM value.
Test target: human Hv1 channel (Homo sapiens)
Construct: expressed in transfected cells; host or cells: Xenopus oocytes (cRNA injection, pGEMHE vector)
Sequence (Q96D96 whole entry): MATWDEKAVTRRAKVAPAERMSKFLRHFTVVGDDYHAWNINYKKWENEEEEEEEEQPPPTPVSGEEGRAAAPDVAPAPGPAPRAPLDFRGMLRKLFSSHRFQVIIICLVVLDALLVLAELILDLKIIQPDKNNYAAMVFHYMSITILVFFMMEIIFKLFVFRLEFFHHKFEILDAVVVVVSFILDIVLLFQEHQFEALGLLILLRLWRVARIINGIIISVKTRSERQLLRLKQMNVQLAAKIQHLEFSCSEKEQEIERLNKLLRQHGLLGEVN
Assay details: Patch-clamp assay of Hv1 proton transport inhibition in Xenopus oocytes expressing human Hv1
Format: cell-based
Condition: 200 μM
# value in %; strip the unit string

Example cases with answers are listed next.
1) N=C(N)NCCCCN [agmatine]	18.5
2) CC(C)OC(=O)CCCCC(=NNC(=N)N)c1ccccc1	73
3) Cc1nc(NC(=N)N)nc2ccccc12 [2-guanidino-4-methylquinazoline]	31.7
4) N=C(N)Nc1nc2ccccc2o1 [1-(1,3-benzoxazol-2-yl)guanidine]	1
5) N=C(N)Nc1nc2ccccc2[nH]1 [2-guanidinobenzimidazole]	82.6

Prompt: Give inhibition at 200 µM for N=C(N)NN [aminoguanidine, amino-guanidine]
Completion: 4.3

Prompt: Give inhibition at 200 µM for CN(C)C(=N)NC(=N)N [1,1-dimethylbiguanide]
Completion: 6.8

Prompt: Give inhibition at 200 µM for `CCOC(=O)c1nc(NC(=N)N)sc1C`
Completion: 39.4

Prompt: Give inhibition at 200 µM for Nc1ncccn1 [2-aminopyrimidine]
Completion: 2

Prompt: Give inhibition at 200 µM for `CCOC(=O)c1sc(NC(=N)N)nc1C`
Completion: 31

Prompt: Give inhibition at 200 µM for N=C(N)Nc1nc2ccccc2s1 [1-(1,3-benzothiazol-2-yl)guanidine]
Completion: 81

Prompt: Give inhibition at 200 µM for Nc1nc2ccccc2[nH]1 [2-aminobenzimidazole]
Completion: 29.8

Prompt: Give inhibition at 200 µM for `CC(=O)N(C(=N)NC(=N)N)c1ccccc1`
Completion: 0.5

Prompt: Give inhibition at 200 µM for Nc1ncc[nH]1 [2-aminoimidazole]
Completion: 21.2
